Source listed as patent US12729186B2.

- Procedure text: Drug release assay (hydrolysis rate test in pH 7.4 / pH 2.0 buffer, HPLC)
- Format: physicochemical
- Measurement setup: pH 7.4 buffer solution, 37° C., 200 rpm, 6 h; residual content relative to 0 h by HPLC
Consider the following molecules and their measured Release rate (%) pH 7.4 (6 h) readings.
Could you give the number and then its unit, please?

CCCCN(CCCC)c1ccc(N2CCC(CCOC(=O)n3cc(F)c(=O)[nH]c3=O)CC2)cc1; 83%
Cn1nnc2c(C(=O)NC(=O)Oc3ccc(CC4CCN(C(c5ccccc5)c5ccccc5)CC4)cc3)ncn2c1=O; 100%
CCc1c2c(nc3ccc(OC(=O)NCC4CCCN4C(c4ccccc4)c4ccccc4)cc13)-c1cc3c(c(=O)n1C2)COC(=O)[C@]3(O)CC (stereo partly drawn); 100%
CCCCCN(CCCCC)c1ccc(OC(=O)OCn2cc(F)c(=O)[nH]c2=O)cc1; 100%
CCCCCCCN1CCC(COC(=O)Oc2ccc3nc4c(c(CC)c3c2)Cn2c-4cc3c(c2=O)COC(=O)[C@]3(O)CC)CC1; 11.9%

Prompt: Provide measured Release rate (%) pH 7.4 (6 h) value, entry: CC[C@@]1(O)C(=O)OCc2c1cc1n(c2=O)Cc2cc3cc(OC(=O)OCC4CCCN4C(c4ccccc4)c4ccccc4)ccc3nc2-1 (stereo partly drawn)
Response: 100%

Prompt: Provide measured Release rate (%) pH 7.4 (6 h) value, entry: `Cc1cc(C)cc(N2CCC(c3ccc(OC(=O)OCn4cc(F)c(=O)[nH]c4=O)cc3)CC2)c1`
Response: 98%

Prompt: Provide measured Release rate (%) pH 7.4 (6 h) value, entry: `O=C(OCn1cc(F)c(=O)[nH]c1=O)Oc1ccc(CC2CCN(C(c3ccccc3)c3ccccc3)CC2)cc1`
Response: 90%

Prompt: Provide measured Release rate (%) pH 7.4 (6 h) value, entry: `O=C(OCn1cc(F)c(=O)[nH]c1=O)Oc1ccc(C2CCN(CC34CC5CC(CC(C5)C3)C4)CC2)cc1`
Response: 99%

Prompt: Provide measured Release rate (%) pH 7.4 (6 h) value, entry: `CCc1c2c(nc3ccc(OC(=O)[C@@H]4CCCN4C(c4ccccc4)c4ccccc4)cc13)-c1cc3c(c(=O)n1C2)COC(=O)[C@]3(O)CC`
Response: 84.4%

Prompt: Provide measured Release rate (%) pH 7.4 (6 h) value, entry: `CCCCN(CCCC)c1ccc(N2CCC(CCOC(=O)OCn3cc(F)c(=O)[nH]c3=O)CC2)cc1`
Response: 64%

Prompt: Provide measured Release rate (%) pH 7.4 (6 h) value, entry: `CCc1c2c(nc3ccc(OC(=O)CN(C4CCCCC4)C4CCCCC4)cc13)-c1cc3c(c(=O)n1C2)COC(=O)[C@]3(O)CC`
Response: 100%

Prompt: Provide measured Release rate (%) pH 7.4 (6 h) value, entry: `COc1ccc(OC(=O)OCn2cc(F)c(=O)[nH]c2=O)cc1`
Response: 61.3%

Prompt: Provide measured Release rate (%) pH 7.4 (6 h) value, entry: `CCCCN1CCC(c2ccc(OC(=O)Oc3ccc4nc5c(c(CC)c4c3)Cn3c-5cc4c(c3=O)COC(=O)[C@]4(O)CC)cc2)CC1`
Response: 57.4%

Prompt: Provide measured Release rate (%) pH 7.4 (6 h) value, entry: `Cn1nnc2c(C(=O)NCc3ccc(CC4CCN(C(c5ccccc5)c5ccccc5)CC4)cc3)ncn2c1=O`
Response: 85.4%

###

- Procedure text: Drug release assay (hydrolysis rate test in pH 7.4 / pH 2.0 buffer, HPLC)
- Assay type: physicochemical
- Measurement setup: pH 7.4 buffer solution, 37° C., 200 rpm, 0.5 h; residual content relative to 0 h by HPLC
Param label: returns y when Release rate (%) pH 7.4 (0.5 h) < 70%, returns n otherwise, including exact equality.

Cn1nnc2c(C(=O)NCc3ccc(CC4CCN(C(c5ccccc5)c5ccccc5)CC4)cc3)ncn2c1=O; y
CCCCN1CCC(c2ccc(OC(=O)Oc3ccc4nc5c(c(CC)c4c3)Cn3c-5cc4c(c3=O)COC(=O)[C@]4(O)CC)cc2)CC1; y
CCCCN(CCCC)c1ccc(N2CCC(CCOC(=O)OCn3cc(F)c(=O)[nH]c3=O)CC2)cc1; y
O=C(OCn1cc(F)c(=O)[nH]c1=O)Oc1ccc(CC2CCN(C(c3ccccc3)c3ccccc3)CC2)cc1; n
CCc1c2c(nc3ccc(OC(=O)[C@@H]4CCCN4C(c4ccccc4)c4ccccc4)cc13)-c1cc3c(c(=O)n1C2)COC(=O)[C@]3(O)CC; n

As a next step, examine the compound that follows.
Prompt: Please check: Release rate (%) pH 7.4 (0.5 h) for `O=C(OCn1cc(F)c(=O)[nH]c1=O)Oc1ccc(C2CCN(CC34CC5CC(CC(C5)C3)C4)CC2)cc1` , strictly under 70% or not?
Response: n

###

- Procedure text: Drug release assay (hydrolysis rate test in pH 7.4 / pH 2.0 buffer, HPLC)
- Type: physicochemical
- Measurement setup: pH 2.0; Kh=-ln[100%-Release rate (%)]/t
Entry flag: Y if Hydrolysis constant Kh pH 2.0 reaches 0.07; N if it does not.

Reference set (5 entries):
O=C(OCn1cc(F)c(=O)[nH]c1=O)Oc1ccc(C2CCN(CC34CC5CC(CC(C5)C3)C4)CC2)cc1; N
CCCCN(CCCC)c1ccc(N2CCC(CCOC(=O)n3cc(F)c(=O)[nH]c3=O)CC2)cc1; N
CC[C@@]1(O)C(=O)OCc2c1cc1n(c2=O)Cc2cc3cc(OC(=O)OCC4CCCN4C(c4ccccc4)c4ccccc4)ccc3nc2-1 (stereo partly drawn); Y
COc1ccc(OC(=O)OCn2cc(F)c(=O)[nH]c2=O)cc1; Y
Cn1nnc2c(C(=O)NC(=O)Oc3ccc(CC4CCN(C(c5ccccc5)c5ccccc5)CC4)cc3)ncn2c1=O; N

Prompt: Determine whether this compound has Hydrolysis constant Kh pH 2.0 no lower than 0.07: `Cn1nnc2c(C(=O)NCc3ccc(CC4CCN(C(c5ccccc5)c5ccccc5)CC4)cc3)ncn2c1=O`
Response: N

Prompt: Determine whether this compound has Hydrolysis constant Kh pH 2.0 no lower than 0.07: `CCCCCCCN1CCC(COC(=O)Oc2ccc3nc4c(c(CC)c3c2)Cn2c-4cc3c(c2=O)COC(=O)[C@]3(O)CC)CC1`
Response: N

Prompt: Determine whether this compound has Hydrolysis constant Kh pH 2.0 no lower than 0.07: `O=C(OCn1cc(F)c(=O)[nH]c1=O)Oc1ccc(C2CCN(CC(c3ccccc3)c3ccccc3)CC2)cc1`
Response: N

Prompt: Determine whether this compound has Hydrolysis constant Kh pH 2.0 no lower than 0.07: `CCCN(CCC)c1ccc(-c2ccc(OC(=O)OCn3cc(F)c(=O)[nH]c3=O)cc2)cc1`
Response: Y

###

- Procedure text: Drug release assay (hydrolysis rate test in pH 7.4 / pH 2.0 buffer, HPLC)
- Format: physicochemical
- Measurement setup: pH 2.0; Kh=-ln[100%-Release rate (%)]/t
Consider the following molecules and their measured Hydrolysis constant Kh pH 2.0 readings.

Recorded Hydrolysis constant Kh pH 2.0, per entry:
CCCCN(CCCC)c1ccc(N2CCC(CCOC(=O)OCn3cc(F)c(=O)[nH]c3=O)CC2)cc1 [Example 1]; <0.001
CCc1c2c(nc3ccc(OC(=O)NCC4CCCN4C(c4ccccc4)c4ccccc4)cc13)-c1cc3c(c(=O)n1C2)COC(=O)[C@]3(O)CC (stereo partly drawn) [Example 16]; <0.001

Field: next molecule
Prompt: Provide measured Hydrolysis constant Kh pH 2.0 value, entry: CC[C@@]1(O)C(=O)OCc2c1cc1n(c2=O)Cc2cc3cc(OC(=O)CC4CCN(CC(c5ccccc5)c5ccccc5)CC4)ccc3nc2-1 [Example 13]
Response: <0.001

###

- Procedure text: Drug release assay (hydrolysis rate test in pH 7.4 / pH 2.0 buffer, HPLC)
- Assay type: physicochemical
- Measurement setup: pH 2.0 buffer solution, 37° C., 200 rpm, 6 h; residual content relative to 0 h by HPLC
Entry flag: Criterion met if Release rate (%) pH 2.0 (6 h) reaches 20%; Criterion not met if it does not.

Reference set (10 entries):
CCCCN1CCC(c2ccc(OC(=O)Oc3ccc4nc5c(c(CC)c4c3)Cn3c-5cc4c(c3=O)COC(=O)[C@]4(O)CC)cc2)CC1 [Example 17]; Criterion met
O=C(OCn1cc(F)c(=O)[nH]c1=O)Oc1ccc(CC2CCN(C(c3ccccc3)c3ccccc3)CC2)cc1 [Example 9]; Criterion not met
CCCN(CCC)c1ccc(-c2ccc(OC(=O)OCn3cc(F)c(=O)[nH]c3=O)cc2)cc1 [Example 2]; Criterion met
CCCCN(CCCC)c1ccc(N2CCC(CCOC(=O)OCn3cc(F)c(=O)[nH]c3=O)CC2)cc1 [Example 1]; Criterion not met
CCc1c2c(nc3ccc(OC(=O)NCC4CCCN4C(c4ccccc4)c4ccccc4)cc13)-c1cc3c(c(=O)n1C2)COC(=O)[C@]3(O)CC (some centres unmarked) [Example 16]; Criterion not met
CCCCCCCN1CCC(COC(=O)Oc2ccc3nc4c(c(CC)c3c2)Cn2c-4cc3c(c2=O)COC(=O)[C@]3(O)CC)CC1 [Example 18]; Criterion not met
CCCc1ccc(N2CCc3cc(OC(=O)OCn4cc(F)c(=O)[nH]c4=O)ccc3C2)cc1 [Example 5]; Criterion met
CCCCC1CCN(c2ccc(CCOC(=O)n3cc(F)c(=O)[nH]c3=O)cc2)CC1 [Example 10]; Criterion met
COc1ccc(OC(=O)OCn2cc(F)c(=O)[nH]c2=O)cc1 [Example 25]; Criterion met
CCCc1ccc(N2CCC(Cc3ccc(OC(=O)OCn4cc(F)c(=O)[nH]c4=O)cc3)CC2)cc1 [Example 6]; Criterion not met

Prompt: Determine whether this compound has Release rate (%) pH 2.0 (6 h) no lower than 20%: CCCCCN(CCCCC)c1ccc(OC(=O)OCn2cc(F)c(=O)[nH]c2=O)cc1 [Example 3]
Response: Criterion met

Prompt: Determine whether this compound has Release rate (%) pH 2.0 (6 h) no lower than 20%: Cn1nnc2c(C(=O)NC(=O)Oc3ccc(CC4CCN(C(c5ccccc5)c5ccccc5)CC4)cc3)ncn2c1=O [Example 21]
Response: Criterion not met

Prompt: Determine whether this compound has Release rate (%) pH 2.0 (6 h) no lower than 20%: CCc1c2c(nc3ccc(OC(=O)CN(C4CCCCC4)C4CCCCC4)cc13)-c1cc3c(c(=O)n1C2)COC(=O)[C@]3(O)CC [Example 19]
Response: Criterion met

Prompt: Determine whether this compound has Release rate (%) pH 2.0 (6 h) no lower than 20%: Cn1nnc2c(C(=O)NCc3ccc(CC4CCN(C(c5ccccc5)c5ccccc5)CC4)cc3)ncn2c1=O [Example 22]
Response: Criterion not met

Prompt: Determine whether this compound has Release rate (%) pH 2.0 (6 h) no lower than 20%: CC[C@@]1(O)C(=O)OCc2c1cc1n(c2=O)Cc2cc3cc(OC(=O)CC4CCN(CC(c5ccccc5)c5ccccc5)CC4)ccc3nc2-1 [Example 13]
Response: Criterion not met

Prompt: Determine whether this compound has Release rate (%) pH 2.0 (6 h) no lower than 20%: CCc1c2c(nc3ccc(OC(=O)[C@@H]4CCCN4C(c4ccccc4)c4ccccc4)cc13)-c1cc3c(c(=O)n1C2)COC(=O)[C@]3(O)CC [Example 14]
Response: Criterion not met

Prompt: Determine whether this compound has Release rate (%) pH 2.0 (6 h) no lower than 20%: CCCCN(CCCC)c1ccc(N2CCC(CCOC(=O)n3cc(F)c(=O)[nH]c3=O)CC2)cc1 [Example 11]
Response: Criterion met
